Data provenance is ChEMBL document CHEMBL3632588.

Tested on: MCF7
Test: Antiproliferative activity against human MCF7 cells assessed as cell growth at 20 uM after 72 hrs by colorimetry
Type: functional
Conditions: MCF7, 72 h, read-out: Activity
PARAMETER: growth at 20 µM (%)
Numeric only. Scale: %

Q: Kindly state the measured growth at 20 µM obtained for "CCOc1ccc2nc(SC[C@]3(C)S[C@@H]4[C@@H](Cl)C(=O)N4[C@H]3C(=O)OC)sc2c1" with MCF7.
Result: 65

Q: Kindly state the measured growth at 20 µM obtained for "COC(=O)[C@@H]1N2C(=O)[C@H](Cl)[C@H]2S[C@@]1(C)CSC1=NCCS1" with MCF7.
Result: 87

Q: Kindly state the measured growth at 20 µM obtained for "COC(=O)[C@@H]1N2C(=O)C(Br)(Br)[C@H]2S[C@@]1(C)CSc1nc(-c2ccccc2)c(-c2ccccc2)o1" with MCF7.
Result: 27

Q: Kindly state the measured growth at 20 µM obtained for "COC(=O)[C@@H]1N2C(=O)[C@H](Cl)[C@H]2S[C@@]1(C)CSc1nc2ccccc2o1" with MCF7.
Result: 84

Q: Kindly state the measured growth at 20 µM obtained for "COC(=O)[C@@H]1N2C(=O)[C@H](Cl)[C@H]2S[C@@]1(C)CSc1nc2ccccc2s1" with MCF7.
Result: 66

Q: Kindly state the measured growth at 20 µM obtained for "COC(=O)[C@@H]1N2C(=O)[C@H](Cl)[C@H]2S[C@@]1(C)CSc1nc(-c2ccccc2)c(-c2ccccc2)o1" with MCF7.
Result: 87

---

Assign Ratio IC50 to each entry below.
Test: Ratio of IC50 for mouse NMuMG cells to IC50 for mouse […] cells
Keep it simple and answer with nothing but the number.

Q: Endpoint output: Ratio IC50 of "COC(=O)[C@@H]1N2C(=O)C(Br)(Br)[C@H]2S[C@@]1(C)CSc1nc(-c2ccccc2)c(-c2ccccc2)o1" . Value?
Result: 2.2

Q: Endpoint output: Ratio IC50 of "CCOc1ccc2nc(SC[C@]3(C)S[C@@H]4[C@@H](Cl)C(=O)N4[C@H]3C(=O)OC)sc2c1" . Value?
Result: 1.8

Q: Endpoint output: Ratio IC50 of "COC(=O)[C@@H]1N2C(=O)[C@H](Cl)[C@H]2S[C@@]1(C)CSc1nc2ccccc2s1" . Value?
Result: 1.8

Q: Endpoint output: Ratio IC50 of "COC(=O)[C@@H]1N2C(=O)[C@H](Cl)[C@H]2S[C@@]1(C)CSC1=NCCS1" . Value?
Result: 2

---

Test: Cytotoxicity in mouse NMuMG cells assessed as cell growth at 20 uM after 72 hrs by colorimetry
Type: cell-based
Settings: read-out: Activity
Hi! Just check whether viability at 72 h, 20 µM is below 60%. Below gives Yes, equal or above gives No.

Q: Decide: viability at 72 h, 20 µM of "CCOc1ccc2nc(SC[C@]3(C)S[C@@H]4[C@@H](Cl)C(=O)N4[C@H]3C(=O)OC)sc2c1" strictly below 60%?
Result: No

Q: Decide: viability at 72 h, 20 µM of "COC(=O)[C@@H]1N2C(=O)C(Br)(Br)[C@H]2S[C@@]1(C)CSc1nc(-c2ccccc2)c(-c2ccccc2)o1" strictly below 60%?
Result: Yes

Q: Decide: viability at 72 h, 20 µM of "CCOc1ccc2nc(SC[C@@]3(C)[C@H](C(=O)OC)N4C(=O)[C@H](Cl)[C@H]4S3(=O)=O)sc2c1" strictly below 60%?
Result: Yes

Q: Decide: viability at 72 h, 20 µM of "COC(=O)[C@@H]1N2C(=O)[C@H](Cl)[C@H]2S[C@@]1(C)CSc1nc2ccccc2o1" strictly below 60%?
Result: No

Q: Decide: viability at 72 h, 20 µM of "COC(=O)[C@@H]1N2C(=O)[C@H](Cl)[C@H]2S[C@@]1(C)CSc1nc(-c2ccccc2)c(-c2ccccc2)o1" strictly below 60%?
Result: Yes

Q: Decide: viability at 72 h, 20 µM of "COC(=O)[C@@H]1N2C(=O)[C@H](Cl)[C@H]2S[C@@]1(C)CSc1nc2ccccc2s1" strictly below 60%?
Result: Yes

Q: Decide: viability at 72 h, 20 µM of "COC(=O)[C@@H]1N2C(=O)[C@H](Cl)[C@H]2S[C@@]1(C)CSC1=NCCS1" strictly below 60%?
Result: No

Q: Decide: viability at 72 h, 20 µM of "COC(=O)[C@@H]1N2C(=O)C(Br)(Br)[C@H]2S(=O)(=O)[C@@]1(C)CCl" strictly below 60%?
Result: Yes
